molecular target: Galectin-3 (Homo sapiens, UniProt P17931); assay: fluorescence anisotropy assay, compound as inhibitor of galectin / fluorescein tagged saccharide probe interaction
Sequence (P17931 whole entry): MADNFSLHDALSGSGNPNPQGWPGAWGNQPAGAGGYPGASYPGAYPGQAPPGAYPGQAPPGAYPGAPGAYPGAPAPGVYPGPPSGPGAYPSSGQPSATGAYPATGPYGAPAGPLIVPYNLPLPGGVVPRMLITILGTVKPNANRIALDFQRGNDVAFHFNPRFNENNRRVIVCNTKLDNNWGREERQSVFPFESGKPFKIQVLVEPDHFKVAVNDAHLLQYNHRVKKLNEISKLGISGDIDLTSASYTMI
pKd: −log10 of the molar value.
MEASURED QUANTITY: pKd

Lookup: Note pKd for the compound shown: CO[C@@H]1[C@@H](n2cc(-c3nc(Cl)cs3)nn2)[C@@H](O)[C@@H](CO)O[C@@H]1Sc1cc2scnc2cc1C#N [Example 100]
Found: 6.74

1: CO[C@@H]1[C@@H](n2cc(-c3nc(Cl)cs3)nn2)[C@@H](O)[C@@H](CO)O[C@@H]1Sc1cncc(SC)c1 [Example 102]
2: CO[C@@H]1[C@@H](n2cc(-c3nccs3)nn2)[C@@H](O)[C@@H](CO)O[C@@H]1Sc1cc(Br)ccc1Cl [Example 67]
3: C#Cc1cnc(C(=O)N2CCC2)c(S[C@H]2OC(CO)[C@H](O)C(n3cc(-c4nc(Cl)cs4)nn3)C2OC)c1 (some centres unmarked) [Example 92]
4: CO[C@@H]1[C@@H](n2cc(-c3nc(Cl)c(Cl)s3)nn2)[C@@H](O)[C@@H](CO)O[C@@H]1Sc1cc(Br)cnc1C#N [Example 55]
Lookup: I would appreciate it if you could sort these 4 compounds by pKd, starting from the smallest number. Returns: the labels arranged in the requested order.
Found: 2, 1, 3, 4
(2: 5.46, 1: 6.38, 3: 7.00, 4: 7.55)

---

biological target: Galectin-3 (Homo sapiens, UniProt P17931); test: fluorescence anisotropy assay, compound as inhibitor of galectin / fluorescein tagged saccharide probe interaction
pKd: −log10 of the molar value.
MEASURED QUANTITY: pKd

Lookup: Report pKd from Galectin-3 (Homo sapiens, UniProt P17931) testing of COC1C(n2cc(-c3csc(N)n3)nn2)[C@@H](O)C(CO)O[C@@H]1Sc1cc(Cl)cnc1N1CC2(COC2)C1 (stereo partly drawn)
Found: 5.21

P: CO[C@@H]1[C@@H](n2cc(-c3csc(Cl)n3)nn2)[C@@H](O)[C@@H](CO)O[C@@H]1Sc1cc(Cl)cnc1C#N
Q: N#Cc1ccc(S[C@H]2O[C@H](CO)[C@H](O)[C@H](n3cc(-c4nc(Cl)cs4)nn3)[C@H]2O)cc1Cl
Lookup: From the recorded data, which exceeds the other in pKd: P or Q ? Selection: enter the item's label.
Found: P

I: CO[C@@H]1[C@@H](n2cc(-c3nc(Cl)cs3)nn2)[C@@H](O)[C@@H](CO)O[C@@H]1Sc1cc(Cl)cnc1-c1ccccn1
II: CO[C@@H]1[C@@H](n2cc(-c3nc(Cl)cs3)nn2)[C@@H](O)[C@@H](CO)O[C@@H]1Sc1ccc2ncsc2c1
III: CO[C@@H]1[C@@H](n2cc(-c3csc(N)n3)nn2)[C@@H](O)[C@@H](CO)O[C@@H]1Sc1cc(Cl)cnc1-c1cncnc1
Lookup: I would appreciate it if you could sort these 3 compounds by pKd, starting from the smallest number. Returns: the labels arranged in the requested order.
Found: III, II, I

---

target: Galectin-1 (Homo sapiens, UniProt P09382); assay: fluorescence anisotropy assay, compound as inhibitor of galectin / fluorescein tagged saccharide probe interaction; type: binding
Sequence (P09382 whole entry): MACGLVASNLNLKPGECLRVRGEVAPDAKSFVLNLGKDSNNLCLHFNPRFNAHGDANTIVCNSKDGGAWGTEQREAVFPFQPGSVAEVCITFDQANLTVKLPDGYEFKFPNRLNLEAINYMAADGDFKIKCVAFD
MEASURED QUANTITY: Kd (nM)

I: CO[C@@H]1[C@@H](n2cc(-c3nc(Cl)cs3)nn2)[C@@H](O)[C@@H](CO)O[C@@H]1Sc1cnc(C#N)c(Cl)c1
II: C#Cc1cnc(C#N)c(S[C@H]2O[C@H](CO)[C@H](O)[C@H](n3cc(-c4csc(N)n4)nn3)[C@H]2O)c1
Lookup: Lowest Kd? choose I or II Selection: enter the item's label.
Found: I
(I: 30 nM, II: 540 nM)

---

target: Galectin-3 (Homo sapiens, UniProt P17931); assay: fluorescence anisotropy assay, compound as inhibitor of galectin / fluorescein tagged saccharide probe interaction; type: binding
pKd: −log10 of the molar value.
MEASURED QUANTITY: pKd

// known answers, use as guide
Lookup: Report pKd from Galectin-3 (Homo sapiens, UniProt P17931) testing of `N#Cc1ccc(Cl)cc1S[C@H]1O[C@H](CO)[C@H](O)[C@H](n2cc(-c3nc(Cl)cs3)nn2)[C@H]1O`
Found: 6.64

Lookup: Report pKd from Galectin-3 (Homo sapiens, UniProt P17931) testing of `CO[C@@H]1[C@@H](n2cc(-c3nc(Cl)cs3)nn2)[C@@H](O)[C@@H](CO)O[C@@H]1Sc1cc(Br)cnc1C#N`
Found: 6.77

Lookup: Report pKd from Galectin-3 (Homo sapiens, UniProt P17931) testing of `OC[C@H]1O[C@H](Sc2cc(Cl)cnc2-c2ncc[nH]2)[C@H](O)[C@@H](n2cc(-c3csc(O)n3)nn2)[C@H]1O`
Found: 5.11

Lookup: Report pKd from Galectin-3 (Homo sapiens, UniProt P17931) testing of `C#Cc1cnc(C#N)c(S[C@H]2O[C@H](CO)[C@H](O)[C@H](n3cc(-c4csc(N)n4)nn3)[C@H]2OC)c1`
Found: 5.11

Lookup: Report pKd from Galectin-3 (Homo sapiens, UniProt P17931) testing of `CO[C@@H]1[C@@H](n2cc(-c3nccs3)nn2)[C@@H](O)[C@@H](CO)O[C@@H]1Sc1cc(Br)ccc1C#N`
Found: 5.68

P: CCO[C@@H]1[C@@H](n2cc(-c3csc(N)n3)nn2)[C@@H](O)[C@@H](CO)O[C@@H]1Sc1cc(Cl)cnc1C#N
Q: CO[C@@H]1[C@@H](n2cc(-c3csc(N)n3)nn2)[C@@H](O)[C@@H](CO)O[C@@H]1Sc1cncc(C#N)c1
Lookup: From the recorded data, which exceeds the other in pKd: P or Q ? Selection: enter the item's label.
Found: P

I: CO[C@@H]1[C@@H](n2cc(-c3csc(N)n3)nn2)[C@@H](O)[C@@H](CO)O[C@@H]1Sc1cc(Cl)ccc1C#N
II: CO[C@@H]1[C@@H](n2cc(-c3csc(O)n3)nn2)[C@@H](O)[C@@H](CO)O[C@@H]1Sc1cc(Br)ccc1C#N
Lookup: Lowest pKd? choose I or II Selection: enter the item's label.
Found: I
(I: 5.49, II: 5.70)

I: Nc1nc(-c2cn([C@H]3[C@@H](O)[C@@H](CO)O[C@H](Sc4ccc(Cl)c(Cl)c4)[C@@H]3OCC(F)(F)F)nn2)cs1
II: CO[C@@H]1[C@@H](n2cc(-c3nc(Cl)cs3)nn2)[C@@H](O)[C@@H](CO)O[C@@H]1Sc1cc(Cl)cnc1C#N
III: CO[C@@H]1[C@@H](n2cc(-c3nc(C)cs3)nn2)[C@@H](O)[C@@H](CO)O[C@@H]1Sc1cc(Br)cnc1C#N
IV: CO[C@@H]1[C@@H](n2cc(-c3nccs3)nn2)[C@@H](O)[C@@H](CO)O[C@@H]1Sc1cncc(Br)c1
Lookup: Order field: pKd | Direction: descending (largest first) Returns: the labels arranged in the requested order.
Found: II, III, IV, I
(II: 6.80, III: 5.85, IV: 5.52, I: 5.14)

---

biological target: Galectin-1 (Homo sapiens, UniProt P09382); experiment: fluorescence anisotropy assay, compound as inhibitor of galectin / fluorescein tagged saccharide probe interaction; assay type: binding
pKd: −log10 of the molar value.
MEASURED QUANTITY: pKd

P: Cc1sc(N)nc1-c1cn(C2C(O)[C@@H](Sc3cnc(C(F)(F)F)c(Br)c3)OC(CO)[C@@H]2O)nn1 (stereo partly drawn)
Q: C#Cc1cnc(C(=O)N2CCC2)c(S[C@H]2OC(CO)[C@H](O)C(n3cc(-c4nc(Cl)cs4)nn3)C2OC)c1 (stereo partly drawn)
R: OC[C@H]1O[C@H](Sc2cc(Cl)c(F)c(Cl)c2)C[C@@H](n2cc(-c3csc(O)n3)nn2)[C@H]1O
Lookup: Please rank everything listed above by pKd, with the minimum value first. Returns: the labels arranged in the requested order.
Found: P, R, Q
(P: 6.30, R: 6.89, Q: 7.49)
